experimental system: G9a (Homo sapiens, UniProt Q96KQ7)
Sequence (Q96KQ7 1-1210): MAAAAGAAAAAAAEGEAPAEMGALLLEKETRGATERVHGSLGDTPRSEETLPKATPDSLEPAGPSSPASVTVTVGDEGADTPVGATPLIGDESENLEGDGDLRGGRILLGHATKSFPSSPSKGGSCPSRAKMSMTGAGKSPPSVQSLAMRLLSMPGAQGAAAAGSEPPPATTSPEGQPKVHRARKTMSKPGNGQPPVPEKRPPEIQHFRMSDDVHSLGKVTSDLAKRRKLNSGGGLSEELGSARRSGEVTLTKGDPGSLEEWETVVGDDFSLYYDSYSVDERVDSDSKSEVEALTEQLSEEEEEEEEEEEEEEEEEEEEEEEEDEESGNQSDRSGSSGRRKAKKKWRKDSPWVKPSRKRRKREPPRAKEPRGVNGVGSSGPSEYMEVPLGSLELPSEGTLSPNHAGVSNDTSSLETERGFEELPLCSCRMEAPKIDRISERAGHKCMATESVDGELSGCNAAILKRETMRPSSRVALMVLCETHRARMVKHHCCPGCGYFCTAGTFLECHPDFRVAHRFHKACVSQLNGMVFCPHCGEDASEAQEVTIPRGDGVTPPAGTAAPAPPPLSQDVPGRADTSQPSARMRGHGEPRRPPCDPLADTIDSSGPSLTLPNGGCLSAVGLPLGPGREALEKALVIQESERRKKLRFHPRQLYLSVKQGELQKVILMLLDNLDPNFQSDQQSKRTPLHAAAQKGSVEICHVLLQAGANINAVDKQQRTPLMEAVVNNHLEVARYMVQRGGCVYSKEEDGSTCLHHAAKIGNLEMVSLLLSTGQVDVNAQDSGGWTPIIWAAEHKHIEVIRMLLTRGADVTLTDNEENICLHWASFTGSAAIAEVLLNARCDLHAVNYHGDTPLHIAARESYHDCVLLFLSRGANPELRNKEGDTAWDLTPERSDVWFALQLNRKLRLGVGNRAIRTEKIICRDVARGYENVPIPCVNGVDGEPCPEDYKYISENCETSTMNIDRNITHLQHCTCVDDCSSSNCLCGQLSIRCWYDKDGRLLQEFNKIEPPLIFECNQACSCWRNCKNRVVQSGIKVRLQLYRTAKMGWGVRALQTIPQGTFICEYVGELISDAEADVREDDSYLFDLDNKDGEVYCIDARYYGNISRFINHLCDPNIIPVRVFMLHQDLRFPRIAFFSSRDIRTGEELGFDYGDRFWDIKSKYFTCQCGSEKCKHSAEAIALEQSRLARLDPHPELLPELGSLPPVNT
method: G9a AlphaLISA enzymatic activity assay
Format: biochemical
condition notes: 0.15 nM G9a, 15 uM S-adenosyl-methionine, 100 nM biotinylated histone 3 peptide (1-21), 1 hour at room temperature; read-out: G9a in (uM) (IC50, concentration that produced 50% inhibition)
Where a name gives a salt, the structure may show the parent alone.
reported property: IC50 (µM)

{"columns": ["compound", "unit abbreviation", "IC50"],
 "data": [
  ["COc1cc2c(cc1OCCCN1CCCC1)nc(NC(C)C)c1cccnc12 [Example 52, formate]", "µM", 0.34],
  ["COc1cc2c3c(c(C)nc2cc1OCCCN1CCCC1)CCCN3 [Example 28, trifluoroacetate]", "µM", 0.006],
  ["COc1cc2c3c(c(NC(C)C)nc2cc1OCCCN1CCCC1)CCCC3 [Example 13, formate]", "µM", 0.042],
  ["COc1cc2c3c(c(C4CC4)nc2cc1OCCCN1CCCC1)CCC(C)(C)N3 [Example 76, formate]", "µM", 0.013]
]}

(1) COc1cc2c3c(c(NC4(C(=O)O)CC4)nc2cc1OCCCN1CCCC1)CCC3 [Example 62, formate]
(2) COc1cc2c3c(c(C4CCCC4)nc2cc1OCCCN1CCCC1)CC(C)(C)N3 [Example 113, hydrochloride]
Input: Consider 1 and 2 . Which of these has its IC50 at a higher number? Selection: enter the item's label.
Output: 1
(1: 0.12 µM, 2: 0.006 µM)

(P) CNc1nc2cc(OCCCN3CCCC3)c(OC)cc2c2c1CCC2 [Example 1, formate]
(Q) COc1cc2c3c(c(NC(C)=O)nc2cc1OCCCN1CCCC1)CCC3 [Example 14, trifluoroacetate]
Input: // pick larger IC50 from pair: P vs Q Indicate your choice by writing its label.
Output: Q
